# Target Or System: Cytochrome P450 3A4 (Homo sapiens) (UniProt P08684)
# Sequence (P08684 whole entry, looked up): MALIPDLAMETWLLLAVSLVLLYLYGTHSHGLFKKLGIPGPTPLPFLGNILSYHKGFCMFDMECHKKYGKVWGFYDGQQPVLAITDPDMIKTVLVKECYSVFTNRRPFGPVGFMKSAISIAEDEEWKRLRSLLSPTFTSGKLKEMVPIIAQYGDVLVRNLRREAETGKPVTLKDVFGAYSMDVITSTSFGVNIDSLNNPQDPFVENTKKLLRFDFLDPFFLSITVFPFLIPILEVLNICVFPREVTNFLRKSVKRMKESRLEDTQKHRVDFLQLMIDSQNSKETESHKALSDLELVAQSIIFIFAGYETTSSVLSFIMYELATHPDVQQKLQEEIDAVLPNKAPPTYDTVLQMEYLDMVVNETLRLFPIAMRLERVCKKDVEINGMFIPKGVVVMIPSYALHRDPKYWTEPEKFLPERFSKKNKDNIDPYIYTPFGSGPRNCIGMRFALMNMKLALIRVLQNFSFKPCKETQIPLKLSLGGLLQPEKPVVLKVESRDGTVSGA
# Protocol: qHTS Assay for Inhibitors and Substrates of Cytochrome P450 3A4 (AID 884); also: nearly all actives have a fitted effect of over 50% in size
# Experimental Conditions: recombinant CYP3A4, Luciferin-PPXE luminescence; series mostly up to 57.1 µM
Records with an inconclusive call do not appear. Activity calls are given as the source filed them. Calls follow the shape of the dose curve; as a rule, active = well fitted inhibition curve with a large enough effect; inconclusive = small, poorly fitted or top-dose-only effect; inactive = no such curve, though single readings can be large or run the other way.
# output must be one of class 1 for active, class 0 for inactive

Prompt: Recorded test outcome, item NCC(N)C(=O)c1ccccc1 (stereo not given)
Response: class 0

Prompt: Outcome logged for CCC1C2CC3C4N(C)c5ccccc5[C@]45CC(C2C5O)N3C1O (stereo not given in full) in this assay:
Response: class 0

Prompt: // param item: CN(CCC(N)CC(=O)NC1C=CC(n2ccc(N)nc2=O)OC1C(=O)O)C(=N)N (stereo not given) ; yields the recorded call
Response: class 1

Prompt: In this assay, the call recorded for `N#CC(C#N)=NNc1cccc(Cl)c1` was what?
Response: class 1

Prompt: Could you kindly confirm the outcome this assay logged for `COc1cc2c(cc1OC)-c1c(O)c(OC)cc3c1[C@H](C2)N(C)CC3` ?
Response: class 1

Prompt: Record request — test call for CCC1C(=O)OC[C@H]1Cc1cncn1C (stereo not given in full)
Response: class 1

Prompt: Record request — test call for `C[C@H]1O[C@H](O[C@H]2[C@H](O)[C@@H](O)[C@@H](O)[C@H](O)[C@@H]2O)[C@@H](N)C[C@@H]1NC(=N)C(=O)O`
Response: class 0

Prompt: In this assay, the call recorded for `c1cc(Cc2cnc[nH]2)ccn1` was what?
Response: class 1

Prompt: Write down the call the test reported for this molecule. Item: `CC[C@]1(O)C(=O)OCc2c1cc1n(c2=O)Cc2cc3ccccc3nc2-1`
Response: class 0

Prompt: Which outcome did this test record for the molecule `O=[N+]([O-])C(Br)Br` ?
Response: class 0

Prompt: Look up the recorded call for CC(=O)OC1CCC2(C)C3=C(CCC2C1(C)C)[C@@]1(C)CCC(C(C)CCC=C(C)C)[C@@]1(C)CC3 (stereo not given in full) in this test.
Response: class 0

Prompt: Hi, do you know how COc1ccc(CC2NC[C@H](O)[C@H]2OC(C)=O)cc1 (stereo not given in full) came out in this test?
Response: class 0

Prompt: Check the results log: what was the call for `COc1cc2c3cc1Oc1c(OC)c(OC)cc4c1[C@@H](Cc1ccc(O)c(c1)Oc1ccc(cc1)C[C@@H]3N(C)CC2)N(C)CC4` ?
Response: class 1

Prompt: Please state the recorded outcome for this molecule: CN1[C@@H]2CC[C@H]1CC(NC(=O)c1nn(C)c3ccccc13)C2 (stereo not given in full)
Response: class 0

Prompt: Hi, do you know how O=[N+]([O-])OC1CO[C@H]2C(O[N+](=O)[O-])COC12 (stereo not given in full) came out in this test?
Response: class 0

Prompt: What classification did `O=C(NC(=O)c1c(F)cccc1F)Nc1ccc(Cl)cc1` end up with in this test?
Response: class 0

Prompt: Test call for this molecule, please: `C#CCO`
Response: class 0

Prompt: Could you please tell me the result logged for `C/C=C(\C)C(=O)O[C@@H]1C(C)=C2[C@H]([C@@H]1OC(=O)CCCCCCC)[C@@](C)(OC(C)=O)C[C@@H](OC(=O)CCC)[C@@]1(O)[C@H]2OC(=O)[C@]1(C)O` in this assay?
Response: class 1

Prompt: Please indicate how the test categorized C/C=C1/C[C@@H](C)[C@](O)(CO)C(=O)OCC2=CCN3CC[C@@H](OC1=O)C23 (stereo not given in full) .
Response: class 0

Prompt: Look up the recorded call for `OC(c1ccc(Cl)cc1)(c1ccc(Cl)cc1)C(Cl)(Cl)Cl` in this test.
Response: class 0

Prompt: Any idea what this test logged for CC(=O)OCC(=O)[C@@]1(O)CCC2C3CC[C@H]4CC(O)CC[C@@]4(C)C3C(=O)C[C@]21C (stereo not given in full) ?
Response: class 1

Prompt: Called result for `Cc1ccc2oc(-c3ccccc3)cc(=O)c2c1`
Response: class 1

Prompt: Which outcome was assigned to `COc1ccc2c(c1O)-c1c(OC)c(OC)cc3c1[C@@H](C2)N(C)CC3` in this test?
Response: class 0

Prompt: Lab log entry: CCC(C)C(=O)OC1C[C@@]2(C)C(c3ccoc3)OC(=O)CC23OC2(C)OC34C(OC(=O)C(C)C)[C@]3(O)C(OC(=O)C5(C)OC5C)[C@]5(C)CC3(O)[C@](C)(C5CC(=O)OC)C14O2 (stereo not given in full) — outcome as called in the assay?
Response: class 1

Prompt: Per the assay record, what outcome was assigned to `CSc1nc(NC(C)C)nc(NC(C)C)n1` ?
Response: class 0

Prompt: Record lookup: outcome of this test for `CC1(C)S[C@H]2[C@@H](N)C(=O)N2[C@H]1C(=O)O` ?
Response: class 0

Prompt: In this assay, the call recorded for CC(C)=CCCC1(C)C=Cc2c(O)c3c(c(CC=C(C)C)c2O1)OC12C(CC4CC1C(C)(C)OC2(C/C=C(/C)C(=O)O)C4O)C3=O (stereo not given) was what?
Response: class 0

Prompt: Look up the recorded call for `COc1ccc2[nH]c(C(=O)c3ccccc3)cc2c1` in this test.
Response: class 1

Prompt: How did this test come out for `Oc1c(Br)c(Br)c(Br)c(Br)c1Br` ?
Response: class 0

Prompt: Called result for `C[C@@]12CC[C@H]3[C@@H](CCC4=CC(=O)CC[C@]43C)[C@H]1CC[C@H]2C(=O)CO`
Response: class 0

Prompt: Called result for COc1cc2c(cc1OC)[C@@H]1C(=O)c3ccc4c(c3OC1CO2)CC(C(C)C)O4 (stereo not given in full)
Response: class 1

Prompt: Outcome? `OC[C@@H]1O[C@@H](n2cnc3cncnc32)[C@@H](O)[C@H]1O`
Response: class 0

Prompt: What outcome does the record of this test show for `CCCCCC[C@H]1C(=O)O[C@H](C)[C@H](NC(=O)c2cccc(NC=O)c2O)C(=O)O[C@@H](C)[C@H]1OC(=O)CC(C)C` ?
Response: class 1

Prompt: Each molecule tested received a call. Report the one for `N#Cc1c(Cl)c(Cl)c(Cl)c(C#N)c1Cl` .
Response: class 1

Prompt: Dear colleague, could you share the recorded outcome for `Cc1ccc2ccc3cccc4ccc1c2c34` when you have a moment?
Response: class 1

Prompt: Outcome? CC1(C)C(C(Cl)Cl)C2(Cl)C(Cl)C(Cl)C1(Cl)C2(Cl)Cl (stereo not given)
Response: class 1

Prompt: Hey, what did the test say about `CCCC/C(C)=C/[C@@H](NP(=O)(c1ccccc1)c1ccccc1)c1ccccc1` ?
Response: class 1

Prompt: // param item: O=C(O)C1C(C(=O)O)C2(Cl)C(Cl)=C(Cl)C1(Cl)C2(Cl)Cl (stereo not given) ; yields the recorded call
Response: class 0

Prompt: For CCCCCCCCCCCCCC(=O)OC1C(C)[C@@]2(O)C(C=C(CO)C[C@]3(O)C(=O)C(C)=C[C@H]23)[C@@H]2C(C)(C)[C@]12OC(C)=O (stereo not given in full) , what call appears in the results of this test?
Response: class 0

Prompt: Tell me the recorded outcome of this test for CC1CC(Cl)CCC1C(=O)OC(C)(C)C (stereo not given) .
Response: class 0
